Data origin, for the record: patent US9096601B2

# Tested on: colon cancer cell strain SW480
# MEASUREMENT NOTES: In-vitro tumor cell proliferation inhibition, MTT
# Assay type: cell-based, human
# ASSAY CONDITIONS: 72 hours
MEASUREMENT KIND: pIC50
The scale used: pIC50 is minus the common logarithm of the concentration in molar units.

# pIC50 (molecule: CN1CCN(c2ccc(Nc3ncc4nc(Nc5cc(Cl)c(Cl)cc5Cl)n(C5CCCC5)c4n3)cc2)CC1 ) is 5.01

# pIC50 (molecule: CC(C)n1c(Nc2ccc(Cl)nc2)nc2cnc(Nc3ccc(N4CCN(C)CC4)cc3)nc21 ) is 5.27

# pIC50 (molecule: CN1CCN(c2ccc(Nc3ncc4nc(NCc5ccccc5)n(C5CCCC5)c4n3)cc2)CC1 ) is 5.11
